Molecular target: caspase-3 (Homo sapiens, UniProt P42574)
Sequence (P42574 29-175 limits assumed): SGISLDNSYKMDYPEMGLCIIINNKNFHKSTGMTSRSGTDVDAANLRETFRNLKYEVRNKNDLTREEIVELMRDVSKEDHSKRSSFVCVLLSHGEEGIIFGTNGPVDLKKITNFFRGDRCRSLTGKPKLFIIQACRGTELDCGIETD
Sequence (P42574 176-277 limits assumed): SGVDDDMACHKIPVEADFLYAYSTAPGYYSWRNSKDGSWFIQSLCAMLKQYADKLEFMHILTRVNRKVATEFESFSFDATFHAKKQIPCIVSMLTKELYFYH
endpoint_label: Kd (µM)
Your answer is read as µM, so omit the unit and give the number.

Which Kd value is on record for CC(=O)Oc1ccccc1C(=O)O [Aspirin] ? 1290

Try CC(C(=O)O)c1ccc(N2Cc3ccccc3C2=O)cc1 (centres unmarked) [Indoprofen] next. 30
